Origin of the recorded values: ChEMBL document CHEMBL3046900

Test system: Athelia rolfsii
protocol_description: Fungitoxic activity against Athelia rolfsii assessed as mycelial growth inhibition at 10 ppm after 3 days
Format: functional
assay_setup: Agroathelia rolfsii, 72 h; read-out: GI
Listed here are molecules together with their documented inhibition of growth at 10 ppm.
endpoint_label: inhibition of growth at 10 ppm (%)

{"molecule": "CC(C)OC(=O)CNC(=O)/C=C/c1ccc(Cl)cc1Cl", "numeric_result": 38}
{"molecule": "COC(=O)[C@H](Cc1ccccc1)NC(=O)/C=C/c1ccc(C(C)C)cc1", "numeric_result": 28}
{"molecule": "CCCOC(=O)[C@H](C)NC(=O)/C=C/c1ccc(Cl)cc1Cl", "numeric_result": 14}
{"molecule": "CCOC(=O)[C@H](C)NC(=O)/C=C/c1ccc(Cl)cc1Cl", "numeric_result": 12}
{"molecule": "CCOC(=O)[C@@H](NC(=O)/C=C/c1ccc(Cl)cc1)[C@@H](C)CC", "numeric_result": 42}
{"molecule": "CCCOC(=O)CNC(=O)/C=C/c1ccc(Cl)cc1", "numeric_result": 35}
{"molecule": "CCOC(=O)[C@H](Cc1ccccc1)NC(=O)/C=C/c1ccccc1", "numeric_result": 27}
{"molecule": "CCCOC(=O)CNC(=O)/C=C/c1ccccc1 [PROPYL 2-CINNAMAMIDOACETATE]", "numeric_result": 26}
{"molecule": "CC(C)OC(=O)CNC(=O)/C=C/c1ccccc1 [ISOPROPYL 2-CINNAMAMIDOACETATE]", "numeric_result": 15}
{"molecule": "COC(=O)[C@@H](NC(=O)/C=C/c1ccc(Cl)cc1Cl)C(C)C", "numeric_result": 24}
{"molecule": "COC(=O)[C@@H](NC(=O)/C=C/c1ccc(Cl)cc1)C(C)C", "numeric_result": 20}
{"molecule": "CC(C)OC(=O)CNC(=O)/C=C/c1ccc(Cl)cc1", "numeric_result": 41}
{"molecule": "CCCOC(=O)CNC(=O)/C=C/c1ccc(C(C)C)cc1", "numeric_result": 23}
{"molecule": "CCCOC/C(=N\\c1ccc(Cl)cc1C(F)(F)F)n1ccnc1", "numeric_result": 64}
{"molecule": "CC[C@H](C)[C@H](NC(=O)/C=C/c1ccc(Cl)cc1)C(=O)OC", "numeric_result": 20}
{"molecule": "CCOC(=O)[C@H](CC(C)C)NC(=O)/C=C/c1ccc(Cl)cc1", "numeric_result": 16}
{"molecule": "CCCOC(=O)[C@H](CC(C)C)NC(=O)/C=C/c1ccc(Cl)cc1", "numeric_result": 25}
{"molecule": "CC(C)OP(=O)(OC(C)C)SCc1ccccc1", "numeric_result": 69}
{"molecule": "CC[C@H](C)[C@H](NC(=O)/C=C/c1ccc(C(C)C)cc1)C(=O)OC", "numeric_result": 41}
{"molecule": "CCOC(=O)[C@@H](NC(=O)/C=C/c1ccc(C(C)C)cc1)C(C)C", "numeric_result": 27}
{"molecule": "COC(=O)[C@@H](NC(=O)/C=C/c1ccc(C(C)C)cc1)C(C)C", "numeric_result": 23}
{"molecule": "CC(C)C[C@H](NC(=O)/C=C/c1ccc(Cl)cc1)C(=O)OC(C)C", "numeric_result": 32}
{"molecule": "CC(C)C[C@H](NC(=O)/C=C/c1ccc(C(C)C)cc1)C(=O)OC(C)C", "numeric_result": 35}
{"molecule": "CCOC(=O)[C@H](C)NC(=O)/C=C/c1ccc(C(C)C)cc1", "numeric_result": 27}
{"molecule": "CC(C)OC(=O)CNC(=O)/C=C/c1ccc(C(C)C)cc1", "numeric_result": 37}
{"molecule": "CCCOC(=O)[C@H](C)NC(=O)/C=C/c1ccc(C(C)C)cc1", "numeric_result": 20}
